System: in vivo angiogenesis, blood vessel count
Test: reduction of blood vessel formation in vivo – HTS, in vivo study (AID 732);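 further: zebrafish embryos dosed at one day post fertilization; 0% = reference inhibitor and 100% = plate mean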
Conditions: active compounds read low;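 tested at 30 µM in the well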
This listing pairs compounds with measured vessel count % control.

compound: CC(=O)NBr
assayed-system: in vivo angiogenesis, blood vessel count
vessel count % control (%): 130
--
compound: CC[N+](CC)(CC)CCOc1cccc(OCC[N+](CC)(CC)CC)c1OCC[N+](CC)(CC)CC
assayed-system: in vivo angiogenesis, blood vessel count
vessel count % control (%): 101
--
compound: C#CC(N)CCC(=O)O (stereo unspecified)
assayed-system: in vivo angiogenesis, blood vessel count
vessel count % control (%): 80
--
compound: CN1CCC2(CCN3CCc4c(oc5ccccc45)C3C2)N(C)C1=O (stereo unspecified)
assayed-system: in vivo angiogenesis, blood vessel count
vessel count % control (%): 87.3
--
compound: CC(C)NCC(O)COc1cccc2[nH]ccc12 (stereo unspecified)
assayed-system: in vivo angiogenesis, blood vessel count
vessel count % control (%): 90.8
--
compound: CN(C)CC[C@@H](c1ccc(Br)cc1)c1ccccn1
assayed-system: in vivo angiogenesis, blood vessel count
vessel count % control (%): 102

----------
System: in vivo angiogenesis, blood vessel count
Experiment: reduction of blood vessel formation in vivo – HTS, in vivo study (AID 732);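 further: zebrafish embryos dosed at one day post fertilization; 0% = reference inhibitor and 100% = plate mean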
Settings: active compounds read low;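 tested at 30 µM in the well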
vessel count % control: recorded values
observed-property: vessel count % control (%)

molecule: CCOC(=O)c1ncn2c1CN(C)C(=O)c1cc(F)ccc1-2
numeric-value: 98.9

molecule: C=CC1(C)CC(=O)C2(O)C(C)(O1)C(OC(C)=O)C(O)C1C(C)(C)CCC(O)C12C (centres undefined)
numeric-value: 97

molecule: OCC1NCC(O)C(O)C1O (centres undefined)
numeric-value: 97.9

molecule: O=C(Nc1cc(C(=O)Nc2ccc(S(=O)(=O)O)cc2S(=O)(=O)O)cc(C(=O)Nc2ccc(S(=O)(=O)O)cc2S(=O)(=O)O)c1)Nc1cc(C(=O)Nc2ccc(S(=O)(=O)O)cc2S(=O)(=O)O)cc(C(=O)Nc2ccc(S(=O)(=O)O)cc2S(=O)(=O)O)c1
numeric-value: 118

molecule: OC[C@H]1O[C@@H](n2cnc3c(NC4CCCC4)ncnc32)C(O)[C@H]1O (some centres undefined)
numeric-value: 94.3

molecule: O=C(O)CCCCCC[C@H]1C(=O)NC(=O)N1CC[C@@H](O)C1CCCCC1
numeric-value: 93.1

molecule: CN(C)CCCN1c2ccccc2Sc2ccc(C(F)(F)F)cc21
numeric-value: 105

molecule: CC(=O)SCC[N+](C)(C)C
numeric-value: 99

molecule: O=c1oc(Cl)c(Cl)c2ccccc12
numeric-value: 104

molecule: CCCC(C(=O)OCCN(CC)CC)(c1ccccc1)c1ccccc1
numeric-value: 98

molecule: O=C(c1ccc(OCCN2CCCCC2)cc1)c1c(-c2ccc(O)cc2)sc2cc(O)ccc12
numeric-value: 87.4

molecule: C/C=C1\C(=O)CC2C3CCC4=CC(=O)CC[C@]4(C)C3CC[C@]12C (some centres undefined)
numeric-value: 102

molecule: COC(=O)C1=CCCN(C)C1
numeric-value: 66

molecule: CCN(CC)CCOCCOC(=O)C1(c2ccccc2)CCCC1
numeric-value: 108

molecule: CCNC(=O)[C@H]1O[C@@H](n2cnc3c(N)nc(NCCc4ccc(CCC(=O)O)cc4)nc32)C(O)[C@H]1O (some centres undefined)
numeric-value: 93.7

molecule: O=C(O)CN(CCN(CC(=O)O)CC(=O)O)CCN(CC(=O)O)CC(=O)O
numeric-value: 0

molecule: CC(N)=NCCC[C@H](N)C(=O)O
numeric-value: 134

molecule: N#C/C(=C\c1ccc(O)c(O)c1)C(=O)Nc1ccccc1
numeric-value: 104

molecule: CC(CN1c2ccccc2Sc2ccccc21)N(C)C (centres undefined)
numeric-value: 97.7

molecule: CCN1C[C@]2(C)CC[C@H](O)[C@@]34C5C[C@@H]6[C@@H](OC)C[C@@](O)(C5[C@H]6O)[C@@H](CC23)C14 (some centres undefined)
numeric-value: 76.7

molecule: COc1cc(CCN)ccc1O
numeric-value: 124

molecule: NC(N)=NCCC[C@H](N)C(=O)O
numeric-value: 94.3

molecule: Cc1ccc(Cl)c(Nc2ccccc2C(=O)O)c1Cl
numeric-value: 90.3

molecule: NCC(O)C1CCCCCCC1 (centres undefined)
numeric-value: 95.9

molecule: CCCN(CCC)C1Cc2cc(OC)c(OC)cc2C1
numeric-value: 72.2

molecule: N#C/C(=C\c1ccc(O)c(O)c1)C(=O)NCCc1ccccc1
numeric-value: 115

molecule: Cc1c(C(=O)c2cccc3ccccc23)c2cccc3c2n1[C@H](CN1CCOCC1)CO3
numeric-value: 0

molecule: CC(C)=CCC/C(C)=C/CC/C(C)=C/CSc1ccccc1C(=O)O
numeric-value: 78.4

molecule: Nc1nc2c(nc(Br)n2C2OC3COP(=O)(O)O[C@@H]3C2O)c(=O)[nH]1 (some centres undefined)
numeric-value: 110

molecule: c1ccc2c(N3CCNCC3)cccc2c1
numeric-value: 97.1

molecule: OC1CCCCC1N1CCC(c2ccccc2)CC1 (centres undefined)
numeric-value: 99

molecule: C=CCN1CC[C@]23c4c5ccc(O)c4O[C@@H]2/C(=N/N=C2\CC[C@@]4(O)C6Cc7ccc(O)c8c7[C@@]4(CCN6CC=C)[C@@H]2O8)CC[C@@]3(O)C1C5
numeric-value: 100

molecule: N[C@@H](Cc1c[nH]c2ccccc12)C(=O)O
numeric-value: 88.5

molecule: COCC(=O)O[C@]1(CCN(C)CCCc2nc3ccccc3[nH]2)CCc2cc(F)ccc2[C@@H]1C(C)C
numeric-value: 90.9

molecule: NC/C=C/C(=O)O
numeric-value: 97.5

molecule: O=C1C(c2c(O)[nH]c3ccc(Cl)cc23)=Nc2ccccc21
numeric-value: 87.6

molecule: NC(=NCCC[C@H](N)C(=O)O)NO
numeric-value: 99

molecule: O=C(CCNNC(=O)c1ccncc1)NCc1ccccc1
numeric-value: 67.2

molecule: c1ccc2sc(C3(N4CCCCC4)CCCCC3)cc2c1
numeric-value: 93.4

----------
System: in vivo angiogenesis, blood vessel count
Test: reduction of blood vessel formation in vivo – HTS, in vivo study (AID 732);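 further: zebrafish embryos dosed at one day post fertilization; 0% = reference inhibitor and 100% = plate mean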
Settings: active compounds read low;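 tested at 30 µM in the well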

compound: CC(=O)SC1CC2=CC(=O)CC[C@]2(C)C2CC[C@@]3(C)C(CC[C@@]34CCC(=O)O4)C12 (stereo partly drawn)
measurement-unit: %
vessel count % control: 85.3
--
compound: NCCCCNS(=O)(=O)c1cccc2c(Cl)cccc12
measurement-unit: %
vessel count % control: 107
--
compound: CN(C)CCCN1c2ccccc2CCc2ccc(Cl)cc21
measurement-unit: %
vessel count % control: 85.2
--
compound: CC(N)(Cc1ccc(O)cc1)C(=O)O (stereo not drawn)
measurement-unit: %
vessel count % control: 105
--
compound: Cc1ccc(S(=O)(=O)NC(=O)NN2CCCCCC2)cc1
measurement-unit: %
vessel count % control: 102
--
compound: CC(C)C(=O)Nc1ccc([N+](=O)[O-])c(C(F)(F)F)c1
measurement-unit: %
vessel count % control: 113
--
compound: Cc1c(C)c2c(c(C)c1O)CCC(C)(CN1CCN(c3cc(N4CCCC4)nc(N4CCCC4)n3)CC1)O2 (stereo not drawn)
measurement-unit: %
vessel count % control: 99.2
--
compound: CCCN(CCC)C(=O)C(CCC(=O)O)NC(=O)c1ccccc1 (stereo not drawn)
measurement-unit: %
vessel count % control: 103
--
compound: C[N+](C)(CCCCCC[N+](C)(C)CCCN1C(=O)c2cccc3cccc(c23)C1=O)CCCN1C(=O)c2cccc3cccc(c23)C1=O
measurement-unit: %
vessel count % control: 115
--
compound: Cc1nccc2c1[nH]c1ccccc12
measurement-unit: %
vessel count % control: 86.1
--
compound: O=C(Cc1ccc(Cl)c(Cl)c1)N1CCCCC1CN1CCCC1 (stereo not drawn)
measurement-unit: %
vessel count % control: 114
--
compound: NCCc1cnc[nH]1
measurement-unit: %
vessel count % control: 93.3
--
compound: NCCc1c[nH]c2ccc(C(N)=O)cc12
measurement-unit: %
vessel count % control: 112
--
compound: Cc1cc(C(C)(C)C)c(O)c(C)c1CC1=NCCN1
measurement-unit: %
vessel count % control: 106
--
compound: NC(=O)c1ccc(OCC(O)CN2CC=C(c3ccc(F)cc3)CC2)cc1 (stereo not drawn)
measurement-unit: %
vessel count % control: 79.7
--
compound: CC1CCN(CC[C@H]2CCCN2S(=O)(=O)c2cccc(O)c2)CC1
measurement-unit: %
vessel count % control: 95.5
--
compound: CC(=O)O[C@H]1C(=O)[C@@]2(C)C([C@H](OC(=O)c3ccccc3)[C@]3(O)C[C@H](OC(=O)[C@H](O)[C@@H](NC(=O)c4ccccc4)c4ccccc4)C(C)=C1C3(C)C)[C@]1(OC(C)=O)CO[C@@H]1C[C@@H]2O (stereo partly drawn)
measurement-unit: %
vessel count % control: 82.3
--
compound: Clc1ccc(C(c2ccccc2Cl)C(Cl)Cl)cc1 (stereo not drawn)
measurement-unit: %
vessel count % control: 92.7
--
compound: Nc1ccc(CCN2CCN(c3cccc(C(F)(F)F)c3)CC2)cc1
measurement-unit: %
vessel count % control: 96.3
--
compound: Oc1ccccc1O
measurement-unit: %
vessel count % control: 96.4
--
compound: CC1Cc2cc3c(cc2C(c2ccc(N)cc2)=NN1)OCO3 (stereo not drawn)
measurement-unit: %
vessel count % control: 105
--
compound: O=C(O)C1CCCNC1 (stereo not drawn)
measurement-unit: %
vessel count % control: 120
--
compound: CCCN1CCC[C@@H](c2cccc(O)c2)C1
measurement-unit: %
vessel count % control: 91.2
--
compound: O=C(O)[C@@H]1CCN1
measurement-unit: %
vessel count % control: 84.3
--
compound: CN[C@H](CC(=O)O)C(=O)O
measurement-unit: %
vessel count % control: 86.7
--
compound: COc1ccc2c(c1)c(CC(=O)O)c(C)n2C(=O)c1ccc(Cl)cc1
measurement-unit: %
vessel count % control: 112
--
compound: CCCN1CCC[C@@H](c2cccc(C#N)c2)C1
measurement-unit: %
vessel count % control: 103
--
compound: CC(C)[C@@]1(NC(=O)[C@@H]2C[C@@H]3c4cccc5[nH]cc(c45)C[C@H]3N(C)C2)O[C@@]2(O)[C@@H]3CCCN3C(=O)[C@H](Cc3ccccc3)N2C1=O
measurement-unit: %
vessel count % control: 118
--
compound: NCCc1ccc(O)c(O)c1
measurement-unit: %
vessel count % control: 91.6
--
compound: OC[C@H]1O[C@@H](n2cnc3c(Nc4ccccc4)ncnc32)C(O)[C@H]1O (stereo partly drawn)
measurement-unit: %
vessel count % control: 110
--
compound: C=CCn1c(=O)c2c(nc(-c3ccc(S(=O)(=O)O)cc3)n2C)n(C)c1=O
measurement-unit: %
vessel count % control: 92
--
compound: O=C(Nc1ccc([N+](=O)[O-])cc1Cl)c1cc(Cl)ccc1O
measurement-unit: %
vessel count % control: 0
--
compound: NCCNC(=O)c1ncsc1-c1cccc(F)c1
measurement-unit: %
vessel count % control: 102
--
compound: Cc1cc(C)c(/C=C2\C(=O)Nc3ccccc32)[nH]1
measurement-unit: %
vessel count % control: 0
--
compound: Oc1[nH]c2c(Cl)cc(Cl)cc2c1C1=Nc2ccc(Br)cc2/C1=N\OCCN1CCNCC1
measurement-unit: %
vessel count % control: 90.9
--
compound: O=c1[nH]c2ccccc2n1CCCN1CCN(C(c2ccccc2)c2ccccc2)CC1
measurement-unit: %
vessel count % control: 120
--
compound: CC(C)(O)[C@@H]1[C@H]2OC(=O)[C@@H]1[C@]1(O)C[C@H]3O[C@]34C(=O)O[C@H]2[C@]14C (tested in a mixture with another compound)
measurement-unit: %
vessel count % control: 116
--
compound: CCCCCCCCCCC/C=C\C(C)(C)/C=C\CCCC(=O)O
measurement-unit: %
vessel count % control: 79.5
--
compound: Nc1nnc(-c2cccc(Cl)c2Cl)c(N)n1
measurement-unit: %
vessel count % control: 62.2
--
compound: NC1(C(=O)O)CC1
measurement-unit: %
vessel count % control: 127
--
compound: CC(=O)NCCc1c[nH]c2ccccc12
measurement-unit: %
vessel count % control: 103
--
compound: Cc1cccc(C(=O)NCN2CCN(c3ccccc3C#N)CC2)c1
measurement-unit: %
vessel count % control: 110
--
compound: CN1C2CCC1CC(OC(c1ccccc1)c1ccccc1)C2 (stereo not drawn)
measurement-unit: %
vessel count % control: 91.6

src = PubChem BioAssay AID732
